Measured values drawn from ChEMBL document CHEMBL1136543 for this set.

- assayed-system: Procathepsin L (Homo sapiens, UniProt P07711)
- Sequence (P07711 whole entry): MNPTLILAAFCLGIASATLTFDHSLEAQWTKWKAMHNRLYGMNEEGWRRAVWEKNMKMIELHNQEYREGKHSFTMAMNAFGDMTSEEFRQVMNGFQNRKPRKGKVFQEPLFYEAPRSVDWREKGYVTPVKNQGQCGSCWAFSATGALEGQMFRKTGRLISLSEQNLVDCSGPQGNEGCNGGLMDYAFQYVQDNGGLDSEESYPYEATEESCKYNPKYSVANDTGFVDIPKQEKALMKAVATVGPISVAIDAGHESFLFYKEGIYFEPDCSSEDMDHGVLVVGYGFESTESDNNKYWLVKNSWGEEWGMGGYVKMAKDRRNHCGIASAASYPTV
pKi: −log10 of the molar value.
Please enter 1.0 where pKi is greater than or equal to 5, and 0.0 where it is lower.

Check out these entries, answers already filled in.
molecule	group
O=C(NC1(C(=O)N[C@@H]2C(=O)N[C@@H]2Oc2ccccc2)CCCCC1)OCc1ccccc1	0.0
CC(=O)O[C@@H]1NC(=O)[C@H]1NC(=O)C1CCCCN1C(=O)OCc1ccccc1 (some centres undefined)	0.0
CC(=O)O[C@@H]1NC(=O)[C@H]1NC(=O)C1CCCN1C(=O)OCc1ccccc1 (some centres undefined)	0.0

Query: Hello, I need to know if CC(=O)O[C@@H]1NC(=O)[C@H]1NC(=O)[C@@H]1CCCC[C@@H]1NC(=O)OCc1ccccc1 has measured pKi not below 5. Thanks!
Reply: 1.0

Query: Hello, I need to know if CC(=O)O[C@@H]1NC(=O)[C@H]1NC(=O)C1(NC(=O)OCc2ccccc2)CCCCC1 has measured pKi not below 5. Thanks!
Reply: 1.0
